Target: PDE3 enzyme (Homo sapiens (Human), UniProt Q14432)
Sequence (Q14432 whole entry): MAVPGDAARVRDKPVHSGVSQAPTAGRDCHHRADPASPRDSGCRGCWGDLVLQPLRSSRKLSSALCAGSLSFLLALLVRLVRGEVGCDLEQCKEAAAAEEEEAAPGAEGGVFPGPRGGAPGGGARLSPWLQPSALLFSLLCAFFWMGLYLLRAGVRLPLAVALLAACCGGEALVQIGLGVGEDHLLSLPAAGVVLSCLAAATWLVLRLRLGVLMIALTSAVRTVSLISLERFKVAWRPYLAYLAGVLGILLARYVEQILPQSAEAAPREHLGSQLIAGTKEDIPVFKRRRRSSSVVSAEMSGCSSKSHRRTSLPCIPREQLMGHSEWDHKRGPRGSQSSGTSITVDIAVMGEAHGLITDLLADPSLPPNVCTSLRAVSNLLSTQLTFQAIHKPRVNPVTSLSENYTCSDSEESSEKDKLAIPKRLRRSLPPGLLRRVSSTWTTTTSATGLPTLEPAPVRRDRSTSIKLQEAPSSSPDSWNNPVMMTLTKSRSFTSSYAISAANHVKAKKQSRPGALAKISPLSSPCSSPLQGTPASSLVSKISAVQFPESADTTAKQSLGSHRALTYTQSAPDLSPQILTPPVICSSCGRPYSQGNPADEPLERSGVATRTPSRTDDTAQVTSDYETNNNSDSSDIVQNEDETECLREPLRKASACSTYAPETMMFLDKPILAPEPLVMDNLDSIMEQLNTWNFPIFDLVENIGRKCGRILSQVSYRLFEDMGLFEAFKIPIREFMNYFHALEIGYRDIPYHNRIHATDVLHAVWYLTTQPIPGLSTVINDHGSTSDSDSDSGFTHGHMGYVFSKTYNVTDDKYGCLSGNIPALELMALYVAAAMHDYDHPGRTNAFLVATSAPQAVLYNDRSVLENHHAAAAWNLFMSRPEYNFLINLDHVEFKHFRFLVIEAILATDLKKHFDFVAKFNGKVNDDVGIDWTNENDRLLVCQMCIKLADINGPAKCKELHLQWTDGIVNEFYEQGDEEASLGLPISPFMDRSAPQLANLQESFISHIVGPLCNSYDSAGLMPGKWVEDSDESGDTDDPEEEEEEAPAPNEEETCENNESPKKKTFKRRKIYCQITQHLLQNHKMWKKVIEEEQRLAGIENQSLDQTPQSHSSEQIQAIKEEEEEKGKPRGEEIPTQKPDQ
Assay: PDE3 inhibition assay (BIOMOL GREEN Quantizyme Assay System)
Conditions: PDE3 from platelets isolated from human blood; cAMP substrate; 1 hour at 37° C.; read at 620 nm
pIC50: −log10 of the molar value.
Quantity kind: pIC50

Consider the reported pIC50 for these compounds:
Cn1c(=O)c2cc(Cc3ccccc3F)c(=O)[nH]c2n(C)c1=O	7.31
Cn1c(=O)c2cc(Cc3ccccc3Br)c(=O)[nH]c2n(C)c1=O	8.18

(P) Cn1c(=O)c2cc(Cc3ccccc3)c(=O)[nH]c2n(C)c1=O
(Q) Cn1c(=O)c2cc(Cc3ccc(Cl)cc3)c(=O)[nH]c2n(C)c1=O
(R) Cn1c(=O)c2cc(Cc3ccc(Br)cc3)c(=O)[nH]c2n(C)c1=O
(S) Cn1c(=O)c2cc(Cc3cccc(F)c3)c(=O)[nH]c2n(C)c1=O
Arrange the 4 compounds from largest to smallest pIC50. Answer by listing the labels in the requested order.
R, Q, S, P
(R: 8.32, Q: 7.90, S: 7.49, P: 4.93)
